Target: Calcium release-activated calcium channel protein 1 (Homo sapiens, UniProt Q96D31)
Sequence (Q96D31 whole entry): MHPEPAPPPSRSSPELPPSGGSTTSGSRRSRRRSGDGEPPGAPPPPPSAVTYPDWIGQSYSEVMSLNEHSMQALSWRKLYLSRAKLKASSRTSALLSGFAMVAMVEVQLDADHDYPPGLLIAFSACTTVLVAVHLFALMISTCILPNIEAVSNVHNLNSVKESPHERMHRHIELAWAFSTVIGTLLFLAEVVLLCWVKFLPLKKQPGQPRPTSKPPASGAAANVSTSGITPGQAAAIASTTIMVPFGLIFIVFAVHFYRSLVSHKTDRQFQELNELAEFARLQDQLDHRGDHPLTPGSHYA
Assay: Inhibition Assay: Inhibition of CRAC channels was determined following thapsigargin (Sigma, Cat # T9033) induced endoplasmic calcium release in Jurkat cells. (see Yasurio Yonetoky et. al Bio. & Med. Chem. 14 (2006) 4750-4760). Cells were centrifuged and resuspended in equal volumes f Ca2+ and Mg2+ free Hanks buffer and Fluo-8 NW dye (ABD Bioquest, Inc., Sunnyvale, Calif.) loading solution at 2x10^5 cells/100 ul/well in 96-well black plate. Plate is incubated at 37 C./5% CO2 […] followed by further […] at room temperature. Test compounds (DMSO stocks diluted in Ca2+ and Mg2+ free Hanks buffer) at desired concentrations were added to the wells and […]. Thapsigargin (1 uM final concentration) was added to the wells and incubated for 15 min to inhibit the Sarco-endoplasmic reticulum Ca2+ ATPase pump thereby depleting endoplasmic calcium and raising cytosolic calcium concentrations. Store-operated calcium entry was initiated by adding extracellular Ca2+.
Property: IC50 (nM)

                                        mol  property  value_measured
0  O=C(Cc1ccc2ncccc2c1)Nc1ccc(-n2nc(C3CC3)cc2C2CC2)cc1      IC50             147
1  O=C(Nc1ccc(-n2nc(C(F)(F)F)cc2C2CC2)cc1)c1ccc2ncccc2c1      IC50            86.1
